// data source = patent US6593306B1

subject_of_test: human 293 cell telomerase (Homo sapiens, UniProt O14746)
Construct: with 20 μl of S100 enzyme extract; endogenous in cells; host or cells: 293 cells (transformed human embryonic kidney), S100 extract
Sequence (O14746 whole entry): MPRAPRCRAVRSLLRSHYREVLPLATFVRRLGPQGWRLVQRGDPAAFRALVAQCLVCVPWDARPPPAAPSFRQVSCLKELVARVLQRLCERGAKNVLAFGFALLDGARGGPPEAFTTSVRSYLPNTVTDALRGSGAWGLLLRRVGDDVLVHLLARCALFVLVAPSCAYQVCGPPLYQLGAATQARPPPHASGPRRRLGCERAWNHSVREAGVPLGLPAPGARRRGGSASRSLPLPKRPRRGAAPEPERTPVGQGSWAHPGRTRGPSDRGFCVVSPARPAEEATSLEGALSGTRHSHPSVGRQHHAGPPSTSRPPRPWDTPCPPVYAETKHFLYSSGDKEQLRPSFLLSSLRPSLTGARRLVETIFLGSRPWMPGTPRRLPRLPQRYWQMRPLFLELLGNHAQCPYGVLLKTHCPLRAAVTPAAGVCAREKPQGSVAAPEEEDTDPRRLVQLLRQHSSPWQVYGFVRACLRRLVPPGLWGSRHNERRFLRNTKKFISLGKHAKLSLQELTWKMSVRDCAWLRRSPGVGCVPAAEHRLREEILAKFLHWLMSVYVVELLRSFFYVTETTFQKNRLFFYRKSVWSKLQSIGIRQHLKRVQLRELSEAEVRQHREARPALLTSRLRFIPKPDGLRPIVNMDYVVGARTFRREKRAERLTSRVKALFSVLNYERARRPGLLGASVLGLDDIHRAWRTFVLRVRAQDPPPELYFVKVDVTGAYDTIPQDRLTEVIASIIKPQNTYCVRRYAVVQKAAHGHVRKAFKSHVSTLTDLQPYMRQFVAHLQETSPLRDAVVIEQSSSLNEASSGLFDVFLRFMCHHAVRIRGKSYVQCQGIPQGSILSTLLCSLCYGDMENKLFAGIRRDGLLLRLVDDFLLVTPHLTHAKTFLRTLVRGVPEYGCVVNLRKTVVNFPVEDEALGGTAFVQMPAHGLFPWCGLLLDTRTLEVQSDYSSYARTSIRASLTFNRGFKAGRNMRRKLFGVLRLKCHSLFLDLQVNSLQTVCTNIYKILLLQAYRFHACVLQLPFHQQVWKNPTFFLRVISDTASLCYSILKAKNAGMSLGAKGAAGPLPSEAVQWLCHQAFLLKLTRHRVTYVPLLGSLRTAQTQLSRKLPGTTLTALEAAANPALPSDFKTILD
Sequence (O60832 whole entry partner): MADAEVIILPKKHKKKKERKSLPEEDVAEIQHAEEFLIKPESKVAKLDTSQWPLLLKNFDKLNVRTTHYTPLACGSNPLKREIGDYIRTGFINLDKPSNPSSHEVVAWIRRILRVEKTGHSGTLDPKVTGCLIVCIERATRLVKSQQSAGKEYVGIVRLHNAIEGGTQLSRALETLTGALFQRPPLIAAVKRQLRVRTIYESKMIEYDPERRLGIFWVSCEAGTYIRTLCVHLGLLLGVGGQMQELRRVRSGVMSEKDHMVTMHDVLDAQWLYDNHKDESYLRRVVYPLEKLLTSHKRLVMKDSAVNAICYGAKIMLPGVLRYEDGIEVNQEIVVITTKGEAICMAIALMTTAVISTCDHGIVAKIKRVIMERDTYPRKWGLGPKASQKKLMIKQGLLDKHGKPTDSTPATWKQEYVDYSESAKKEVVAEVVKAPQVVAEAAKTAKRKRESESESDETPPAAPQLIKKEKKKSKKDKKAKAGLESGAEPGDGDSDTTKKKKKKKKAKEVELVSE
Sequence (Q9NPE3 whole entry partner): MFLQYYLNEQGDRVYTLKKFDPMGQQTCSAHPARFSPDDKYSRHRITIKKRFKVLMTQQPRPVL
Sequence (Q9NX24 whole entry partner): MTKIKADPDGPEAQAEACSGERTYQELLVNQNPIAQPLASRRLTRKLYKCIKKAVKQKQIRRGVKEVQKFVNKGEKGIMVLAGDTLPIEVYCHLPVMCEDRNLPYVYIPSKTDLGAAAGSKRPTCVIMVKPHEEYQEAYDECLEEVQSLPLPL
Sequence (Q9NY12 whole entry partner): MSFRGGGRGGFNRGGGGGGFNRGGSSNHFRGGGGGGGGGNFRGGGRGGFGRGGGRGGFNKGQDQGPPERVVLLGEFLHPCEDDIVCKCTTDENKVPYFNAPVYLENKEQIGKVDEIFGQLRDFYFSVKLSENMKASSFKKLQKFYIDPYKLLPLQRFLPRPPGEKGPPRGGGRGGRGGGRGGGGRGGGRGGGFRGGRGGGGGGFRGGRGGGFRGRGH
procedure_summary: Conventional telomerase assay (32P-dGTP as radiolabel substrate)
Assay type: biochemical
recorded_conditions: 0.5 mM; read-out: % of Control
readout: remaining activity at 500 µM (%)
Answers are plain numbers, in %.

Examples from the recorded data:
{"columns": ["molecule", "remaining activity at 500 µM (%)"],
 "data": [
  ["Nc1ncnc2c1ncn2[C@H]1C[C@H](O)[C@@H](COP(O)(=S)OP(=O)(O)OP(=O)(O)O)O1 (some centres unmarked) [NA006]", 103],
  ["Nc1nc2c(ncn2[C@H]2CC[C@@H](COP(=O)(O)OP(=O)(O)OP(=O)(O)O)O2)c(=O)[nH]1 [NA020, 2′,3′-Dideoxyguanosine-5′-Triphosphate]", 0]
]}

Parameters: items (list). Returns: remaining activity at 500 µM for each item.
1. Nc1nc2c(ncn2[C@H]2C[C@H](O)[C@@H](COP(=O)(O)OP(=O)(O)CP(=O)(O)O)O2)c(=O)[nH]1 [NA014]
2. Nc1nc2c(ncn2[C@H]2C[C@H](O)[C@@H](COP(O)(=S)OP(=O)(O)OP(=O)(O)O)O2)c(=O)[nH]1 (some centres unmarked) [NA013]
3. Nc1ncnc2c1ncn2[C@H]1CC[C@@H](COP(=O)(O)OP(=O)(O)OP(=O)(O)O)O1 [NA007, 2′,3′-Dideoxyadenosine-5′-Triphosphate]

### Response
[42, 0, 141]

---

subject_of_test: human 293 cell telomerase (Homo sapiens)
Construct: with 20 μl of S100 enzyme extract; endogenous in cells; host or cells: 293 cells (transformed human embryonic kidney), S100 extract
procedure_summary: Conventional telomerase assay (32P-dGTP as radiolabel substrate)
Assay type: biochemical
recorded_conditions: 1.0 mM; read-out: % of Control
Please respond with reported remaining activity at 1000 µM for every item in the list.
Give bare numbers, in %.

Examples from the recorded data:
{"columns": ["compound", "subject_of_test", "readout_value"],
 "data": [
  ["Nc1nc2c(ncn2[C@H]2C[C@H](O)[C@@H](COP(O)(=S)OP(=O)(O)OP(=O)(O)O)O2)c(=O)[nH]1 (some centres unmarked)", "human 293 cell telomerase (Homo sapiens)", 0],
  ["Nc1nc2c(ncn2[C@H]2C[C@H](O)[C@@H](COP(=O)(O)OP(=O)(O)CP(=O)(O)O)O2)c(=O)[nH]1", "human 293 cell telomerase (Homo sapiens)", 40]
]}

Parameters: items (list). Returns: remaining activity at 1000 µM for each item.
1. Nc1nc2c(ncn2[C@H]2CC[C@@H](COP(=O)(O)OP(=O)(O)OP(=O)(O)O)O2)c(=O)[nH]1 [NA020, 2′,3′-Dideoxyguanosine-5′-Triphosphate]
2. Nc1ncnc2c1ncn2[C@H]1C[C@H](O)[C@@H](COP(O)(=S)OP(=O)(O)OP(=O)(O)O)O1 (some centres unmarked)
3. Nc1ncnc2c1ncn2[C@H]1CC[C@@H](COP(=O)(O)OP(=O)(O)OP(=O)(O)O)O1 [NA007, 2′,3′-Dideoxyadenosine-5′-Triphosphate]

### Response
[0, 100, 126]

---

subject_of_test: human cancer telomerase (Homo sapiens, UniProt O14746)
Construct: endogenous in cells; host or cells: human cancer cells
procedure_summary: Nucleoside triphosphate as telomerase substrate, dGTP replaced in modified reaction
Assay type: biochemical
recorded_conditions: modified assay; 1 mM dTTP, 3.12 μM [α-32P]dATP
readout: incorporation into telomeric ladders, replacing dGTP

{"columns": ["query_smiles", "subject_of_test", "readout_value"],
 "data": [
  ["Nc1nc2c(ccn2[C@H]2C[C@H](O)[C@@H](COP(=O)(O)OP(=O)(O)OP(=O)(O)O)O2)c(=S)[nH]1", "human cancer telomerase (Homo sapiens, UniProt O14746)", "incorporation"],
  ["Cn1c(N)nc2c(ccn2[C@H]2C[C@H](O)[C@@H](COP(=O)(O)OP(=O)(O)OP(=O)(O)O)O2)c1=O", "human cancer telomerase (Homo sapiens, UniProt O14746)", "incorporation"]
]}

---

subject_of_test: human 293 cell telomerase (Homo sapiens, UniProt O14746)
Construct: with 20 μl of S100 enzyme extract; endogenous in cells; host or cells: 293 cells (transformed human embryonic kidney), S100 extract
procedure_summary: Conventional telomerase assay (32P-dGTP as radiolabel substrate)
Assay type: biochemical
recorded_conditions: 0.25 mM; read-out: % of Control
readout: remaining activity at 250 µM (%)
Numbers only, in %.

Examples from the recorded data:
{"columns": ["molecule", "readout", "readout_value"],
 "data": [
  ["Nc1ncnc2c1ncn2[C@H]1CC[C@@H](COP(=O)(O)OP(=O)(O)OP(=O)(O)O)O1 [NA007, 2′,3′-Dideoxyadenosine-5′-Triphosphate]", "remaining activity at 250 µM", 116],
  ["Nc1ncnc2c1ncn2[C@H]1C[C@H](O)[C@@H](COP(O)(=S)OP(=O)(O)OP(=O)(O)O)O1 (stereo partly shown)", "remaining activity at 250 µM", 103],
  ["Nc1nc2c(ncn2[C@H]2C[C@H](O)[C@@H](COP(O)(=S)OP(=O)(O)OP(=O)(O)O)O2)c(=O)[nH]1 (stereo partly shown)", "remaining activity at 250 µM", 47]
]}

In the following, a different molecule is considered.
### Prompt Using the record for Nc1nc2c(ncn2[C@H]2C[C@H](O)[C@@H](COP(=O)(O)OP(=O)(O)CP(=O)(O)O)O2)c(=O)[nH]1 , report its remaining activity at 250 µM.
### Response 38

---

Test system: BT-20
procedure_summary: Growth inhibition (MTT), BT-20
Type: cell-based
recorded_conditions: Homo sapiens, BT-20, 144 h, 6 days
Please respond with reported IC50 for every item in the list.
One number for each entry, in µM.

Examples from the recorded data:
{"columns": ["compound", "IC50, µM"],
 "data": [
  ["CSc1nc(N)nc2c1ccn2C1CC(O)C(CO)O1 (stereo not shown)", 94.3],
  ["Cn1c(N)nc2c(ccn2[C@H]2C[C@H](O)[C@@H](CO)O2)c1=O", 60.3],
  ["Nc1nc2c(ccn2[C@H]2C[C@H](O)[C@@H](CO)O2)c(=S)[nH]1", 84]
]}

### Prompt Short answer please: IC50, BT-20, entry Nc1nc2c(c(=S)[nH]1)CC=N2
### Response 258

---

subject_of_test: human 293 cell telomerase (Homo sapiens)
Construct: with 20 μl of S100 enzyme extract; endogenous in cells; host or cells: 293 cells (transformed human embryonic kidney), S100 extract
procedure_summary: Conventional telomerase assay (32P-dGTP as radiolabel substrate)
Format: biochemical
recorded_conditions: 293 cells telomerase; competing dTTP 1-2 mM; inhibitor 0 to 2 mM
pIC50: −log10 of the molar value.
readout: pIC50

{"columns": ["compound", "readout_value"],
 "data": [
  ["Cc1cn([C@H]2CC[C@@H](COP(=O)(O)OP(=O)(O)OP(=O)(O)O)O2)c(=O)[nH]c1=O [NA001, 2′,3′-Dideoxythymidine-5′-Triphosphate]", "~3.30"]
]}

In the following, a different compound is considered.
### Prompt Using the record for Cc1cn([C@H]2C[C@H](N=[N+]=[N-])[C@@H](CO[P@](=O)(O)O[P@](=O)(O)OP(=O)(O)O)O2)c(=O)[nH]c1=O , report its pIC50.
### Response ~3.70

---

subject_of_test: human 293 cell telomerase (Homo sapiens)
Construct: with 20 μl of S100 enzyme extract; endogenous in cells; host or cells: 293 cells (transformed human embryonic kidney), S100 extract
procedure_summary: Conventional telomerase assay (32P-dGTP as radiolabel substrate)
Type: biochemical
recorded_conditions: [α-32P]dGTP 1.56 μM; TTP and dATP 1 mM
readout: pIC50
Answers are plain numbers, as −log10 of the molar value.

### Prompt Using the record for Nc1nc2c(ccn2[C@H]2C[C@H](O)[C@@H](COP(=O)(O)OP(=O)(O)OP(=O)(O)O)O2)c(=O)[nH]1 [NA022] , report its pIC50.
### Response 4.96

---

Please respond with reported pIC50 for every item in the list.
Test system: human colon carcinoma HT29 cells
procedure_summary: Growth inhibition (MTT), HT29 cells
Assay type: cell-based
recorded_conditions: HT-29, 144 h, 6 days
Numbers only, as −log10 of the molar value.

Examples from the recorded data:
{"columns": ["query_smiles", "pIC50"],
 "data": [
  ["Nc1ncnc2c1c(Cl)cn2[C@H]1C[C@H](O)[C@@H](CO)O1", 4.81],
  ["Nc1nc2c(c(Cl)cn2[C@H]2C[C@H](O)[C@@H](CO)O2)c(=O)[nH]1", 3.96],
  ["Nc1nc2c(ccn2[C@H]2C[C@H](O)[C@@H](CO)O2)c(=S)[nH]1", 3.34],
  ["Nc1nc2c(ccn2[C@H]2C[C@H](O)[C@@H](CO)O2)c(=O)[nH]1", 3.99],
  ["Nc1ncnc2c1c(I)nn2[C@H]1C[C@H](O)[C@@H](CO)O1", 5.09]
]}

Parameters: items (list). Returns: pIC50 for each item.
1. Nc1ncnc2c1c(Br)cn2[C@H]1C[C@H](O)[C@@H](CO)O1
2. Nc1nc2c(c(I)cn2[C@H]2C[C@H](O)[C@@H](CO)O2)c(=O)[nH]1

### Response
1. 6.02
2. 4.10
